We begin with a simple list: items and their reported half-life t 0.5.
assay_name: Stability in aqueous solution (half-life of enamine derivatives)
Assay type: physicochemical
conditions: pH 7.4 phosphate buffer, μ 0.15, 25° C., UV absorption spectrometry; "stable" = enamine structure retained even after 6 hours
Express the result in min but write the number alone.

Field: example entries. Status: answers known.
molecule	half-life t 0.5 (min)
CCOC(=O)C=C(C)NCC(=O)[O-].[Na+] [Compound 1]	3.7
CCOC(=O)C=C(C)N[C@@H](C(=O)[O-])c1ccccc1.[Na+] [Compound 3]	26.1

Please look at the following molecule next.
Could you tell me which half-life t 0.5 is on file for CCOC(=O)C=C(C)N[C@@H](CCC(=O)[O-])C(=O)[O-].[Na+].[Na+] [Compound 16] ?
16.3
